Recorded log10 Ki by entry
Molecular target: α2C receptor (Homo sapiens, UniProt P18825)
Construct: host or cells: LM(tk-) cells, line L-α2C
Sequence (P18825 whole entry): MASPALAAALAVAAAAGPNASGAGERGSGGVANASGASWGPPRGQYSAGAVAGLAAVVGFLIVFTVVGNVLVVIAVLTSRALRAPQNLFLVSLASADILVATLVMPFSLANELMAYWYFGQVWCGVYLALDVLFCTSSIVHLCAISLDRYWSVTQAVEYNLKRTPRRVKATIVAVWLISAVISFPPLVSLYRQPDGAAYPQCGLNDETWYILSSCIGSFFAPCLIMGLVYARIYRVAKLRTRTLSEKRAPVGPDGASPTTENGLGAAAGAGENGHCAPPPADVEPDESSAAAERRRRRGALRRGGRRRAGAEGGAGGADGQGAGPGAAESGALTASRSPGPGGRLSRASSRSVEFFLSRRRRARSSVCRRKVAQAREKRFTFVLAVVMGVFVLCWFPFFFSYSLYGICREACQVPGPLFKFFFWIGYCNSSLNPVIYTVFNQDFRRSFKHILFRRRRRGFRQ
Assay: Competition binding, [3H]rauwolscine, human α2C receptor
Details: [3H]rauwolscine, LM(tk-) cell line L-α2C; SEM and n in lines below; read-out: pKi alpha-2 2c (converted)
Counter-ions that a name gives are not always drawn.
Observable: log10 Ki (log10 of the value in nM)

{"columns": ["Compound", "log10 Ki"],
 "data": [
  ["COC(=O)C1=C(C)NC(C)=C(C(=O)NCCCN2CCC(c3ccccc3)(c3ccccc3)CC2)C1c1cc[n+]([O-])cc1 (stereo not shown)", 3.12],
  ["CC1=C(C(=O)NCCCN2CCC(c3ccccc3)(c3ccccc3)CC2)C(c2ccc([N+](=O)[O-])cc2)C2=C(CCCC2=O)N1 (stereo not shown)", 2.99],
  ["COC(=O)C1=C(C)NC(C)=C(C(=O)NCCCN2CCC(c3ccccc3)(c3ccccc3)CC2)C1c1ccc([N+](=O)[O-])c(C)c1 (stereo not shown)", 2.80],
  ["COc1cc2c(cc1OC)CN(CCCNC(=O)C1=C(C)NC(C)=C(C(N)=O)C1c1ccc([N+](=O)[O-])cc1)CC2 (stereo not shown) [Example 58, hydrochloride]", 1.70],
  ["CC1=C(C(N)=O)C(c2ccc([N+](=O)[O-])cc2)C(C(=O)NCCCN2CCC(c3ccccc3)CC2)=C(C)N1 (stereo not shown)", 1.83],
  ["COC(=O)C1=C(C)NC(C)=C(C(=O)NCCCN2CCC(c3ccccc3)CC2)C1c1ccc([N+](=O)[O-])cc1 (single isomer, unassigned; (-)) [(−)-45, hydrochloride hemihydrate]", 1.14],
  ["COC(=O)C1=C(C)NC(C)=C(C(=O)NCCCN2CCC(c3ccccc3)CC2)C1c1ccc(C)cc1 (stereo not shown)", 1.72],
  ["CC1=C(C(N)=O)C(c2ccc([N+](=O)[O-])cc2)C(C(=O)NCCN2CCC(c3ccccc3)(c3ccccc3)CC2)=C(C)N1 (stereo not shown) [Example 54, hydrochloride hydrate]", 2.20],
  ["COC(=O)C1=C(C)NC(C)=C(C(=O)NCCCN2CCC(c3ccccc3)CC2)C1c1cccc([N+](=O)[O-])c1 (stereo not shown)", 1.69],
  ["CNC(=O)C1=C(C)NC(C)=C(C(=O)NCCCN2CCC(c3ccccc3)CC2)C1c1ccc([N+](=O)[O-])cc1 (stereo not shown) [Example 56, hydrochloride hemihydrate]", 2.27],
  ["CCC1=C(C(N)=O)C(c2ccc([N+](=O)[O-])cc2)C(C(=O)NCCCN2CCC(c3ccccc3)(c3ccccc3)CC2)=C(C)N1 (stereo not shown)", 2.64],
  ["CC1=C(C(N)=O)C(c2cccc([N+](=O)[O-])c2)C(C(=O)NCCCN2CCC(c3ccccc3)CC2)=C(C)N1 (stereo not shown)", 1.69],
  ["COC(=O)C1=C(C)NC(C)=C(C(=O)NCCCN2CCCCC2)C1c1ccc([N+](=O)[O-])cc1 (stereo not shown)", 2.40]
]}

====

A collection of compounds and their measured melting point

{"columns": ["Compound", "melting point"],
 "data": [
  ["CC1=C(C(=O)NCCCN2CCC(c3ccccc3)(c3ccccc3)CC2)C(c2ccc([N+](=O)[O-])cc2)C(C(=O)N(C)C)=C(C)N1 (stereo not drawn) [Example 39]", "135 °C"],
  ["CCC1=C(C(N)=O)C(c2ccc([N+](=O)[O-])cc2)C(C(=O)NCCCN2CCC(c3ccccc3)CC2)=C(CC)N1 (stereo not drawn) [Example 121]", "90 to 101 °C"],
  ["CNC(=O)C1=C(C)NC(C)=C(C(=O)NCCCN2CCC(C(=O)OC)(c3ccccc3)CC2)C1c1ccc2c(c1)OCCO2 (stereo not drawn) [Example 164]", "101 to 104 °C"]
]}
